Where these numbers come from: patent US3932664A

# RUN_DESCRIPTION: blood and heart tissue levels in mice after intravenous and oral administration
# Type: in vivo
# ASSAY_CONTEXT: heart; mouse, intravenous 6 mg/kg, 10 minutes after injection
MEASURED_QUANTITY: concentration at 10 min (ng/g)

compound_string=C=CC[N+](C)(C)CCOc1c(Br)cc(N)cc1Br.[Br-] readout_units=ng/g result=5500

* * *

Known minimal effective dose of a selection of compounds
# Tested on: ouabain-induced ventricular tachycardia in dogs
# RUN_DESCRIPTION: conversion of ouabain-induced ventricular tachycardia to normal sinus rhythm in anesthetized dogs
# Type: in vivo, dog
# ASSAY_CONTEXT: Canis lupus familiaris, iv, dog, intravenous, dose giving complete conversion of ouabain-induced tachycardia to normal sinus rhythm; read-out: Conversion Dose
MEASURED_QUANTITY: minimal effective dose (mg/kg)

compound_string=Cc1ccc[n+](CCOc2c(Br)cc(N)cc2Br)c1.[Br-] readout_units=mg/kg result=0.5
compound_string=C[N+](C)(CCOc1c(Br)cc(N)cc1Br)Cc1ccc(Cl)cc1 readout_units=mg/kg result=1
compound_string=C[N+](C)(CCOc1c(Br)cc(N)cc1Br)CCc1ccccc1 readout_units=mg/kg result=2
compound_string=C[N+](C)(CCOc1c(Br)cc(N)cc1Br)CC(=O)c1ccc(Cl)c(Cl)c1 readout_units=mg/kg result=16
compound_string=C[N+](C)(CCOc1c(Br)cc(N)cc1Br)Cc1ccccc1 readout_units=mg/kg result=1
compound_string=C=C(C)C[N+](C)(C)CCOc1c(Cl)cc(N)cc1Cl.[Cl-] readout_units=mg/kg result=0.5
compound_string=C[N+](C)(CCOc1c(Br)cc(N)cc1Br)Cc1ccc(Cl)cc1Cl readout_units=mg/kg result=0.5
compound_string=C=CC[N+](C)(C)CCCOc1c(Br)cc(N)cc1Br.[Br-] readout_units=mg/kg result=1
compound_string=Br.C=CC[N+]1(CCOc2c(Br)cc(N)cc2Br)CCCC1.[Br-] readout_units=mg/kg result=2

* * *

# RUN_DESCRIPTION: acute oral toxicity in mice
# ASSAY_CONTEXT: mouse, in vivo, male mice, single oral dose
MEASURED_QUANTITY: LD50 at 24 h

compound_string=C=C(C)C[N+](C)(C)CCOc1c(Br)cc(N)cc1Br.[Cl-] measured_quantity="LD50 at 24 h" result="560 mg/kg"

* * *

# RUN_DESCRIPTION: acute oral toxicity in rats
# ASSAY_CONTEXT: rat, in vivo, male rats, single oral dose
# Protocol: An aqueous solution of [2-(4-amino-2,6-dibromophenoxy)ethyl]dimethyl (2-methylallyl)ammonium chloride is administered orally to several groups of male and female Sprague-Dawley derived rats and male and female Swiss mice (Cox strain). The compound is administered as single oral dosages in varying amounts, and the animals are held to assess toxicity twenty-four hours after administration of the compound.
MEASURED_QUANTITY: LD50 at 24 h (mg/kg)

compound_string=C=C(C)C[N+](C)(C)CCOc1c(Br)cc(N)cc1Br.[Cl-] readout_units=mg/kg result=758

* * *

Attribute: minimal effective dose
# Tested on: ouabain-induced ventricular tachycardia in dogs
# RUN_DESCRIPTION: conversion of ouabain-induced ventricular tachycardia to normal sinus rhythm in anesthetized dogs
# Assay type: in vivo, dog
# ASSAY_CONTEXT: Canis lupus familiaris, iv, dog, intravenous, dose giving complete conversion of ouabain-induced tachycardia to normal sinus rhythm; read-out: Conversion Dose
MEASURED_QUANTITY: minimal effective dose (mg/kg)

compound="C=C(C)C[N+](C)(C)CCOc1c(Br)cc(N)cc1Br.[Cl-] [Example 1]" measured_quantity="minimal effective dose" result=0.5
compound="C[N+](C)(CCOc1c(Br)cc(N)cc1Br)Cc1ccc(Cl)c(Cl)c1 [Example 14]" measured_quantity="minimal effective dose" result=2
compound="CC(=O)C[N+](C)(C)CCOc1c(Br)cc(N)cc1Br.[Cl-] [Example 5]" measured_quantity="minimal effective dose" result=1
compound="C=CC[N+](C)(C)CCCCOc1c(Br)cc(N)cc1Br.[Br-] [Example 25]" measured_quantity="minimal effective dose" result=2
compound="C#CC[N+](C)(C)CCOc1c(Br)cc(N)cc1Br.[Br-] [Example 4]" measured_quantity="minimal effective dose" result=0.5

* * *

Listing of entries alongside the reported minimal effective dose.
# Tested on: ouabain-induced ventricular tachycardia in dogs
# RUN_DESCRIPTION: conversion of ouabain-induced ventricular tachycardia to normal sinus rhythm in anesthetized dogs
# Type: in vivo, dog
# ASSAY_CONTEXT: Canis lupus familiaris, iv, dog, intravenous, dose giving complete conversion of ouabain-induced tachycardia to normal sinus rhythm; read-out: Conversion Dose
MEASURED_QUANTITY: minimal effective dose (mg/kg)

compound="C=CC[N+]1(CCOc2c(Br)cc(N)cc2Br)CCCCCC1 [Example 23]" result=0.5
compound="C[N+](C)(CC=CCl)CCOc1c(Br)cc(N)cc1Br [Example 10]" result=1
compound="C=CC[N+](CC)(CC)CCOc1c(Br)cc(N)cc1Br.[Br-] [Example 16]" result=2
compound="CCOC(=O)C[N+](C)(C)CCOc1c(Br)cc(N)cc1Br [Example 2]" result=1
compound="C=CC[N+](C)(C)CCOc1c(Br)cc(N)cc1Br.[Br-] [Example 6]" result=1
compound="Br.C=CC[N+]1(CCOc2c(Br)cc(N)cc2Br)CCCCC1.[Br-] [Example 22]" result=1
compound="C[N+](C)(CCOc1c(Br)cc(N)cc1Br)Cc1ccccc1Cl.[Cl-] [Example 3]" result=1
compound="C[N+](C)(CCO)CCOc1c(Br)cc(N)cc1Br [Example 7]" result=1
compound="C=CC[N+](C)(C)CCOc1c(Br)cc(N)cc1Br.CS(=O)(=O)[O-] [Example 19]" result=1

* * *

Duration (period of normal cardiac rhythm) overview
# System: ouabain-induced ventricular tachycardia in dogs
# RUN_DESCRIPTION: conversion of ouabain-induced ventricular tachycardia to normal sinus rhythm in anesthetized dogs
# Assay type: in vivo, dog
# ASSAY_CONTEXT: dog, intravenous, at conversion dose 0.5 mg/kg
MEASURED_QUANTITY: Duration (period of normal cardiac rhythm) (min)

compound="Cc1ccc[n+](CCOc2c(Br)cc(N)cc2Br)c1.[Br-] [Example 24]" readout_units=min result=38
compound="C=CC[N+]1(CCOc2c(Br)cc(N)cc2Br)CCCCCC1 [Example 23]" readout_units=min result=3.3
compound="Nc1cc(Br)c(OCC[N+]23CCC(CC2)CC3)c(Br)c1 [Example 20]" readout_units=min result=1
compound="C=C(C)C[N+](C)(C)CCOc1c(Br)cc(N)cc1Br.[Cl-] [Example 1]" readout_units=min result=15
compound="C#CC[N+](C)(C)CCOc1c(Br)cc(N)cc1Br.[Br-] [Example 4]" readout_units=min result=24
compound="C[N+](C)(CCOc1c(Br)cc(N)cc1Br)Cc1ccc(Cl)cc1Cl [Example 13]" readout_units=min result=4
compound="C=C(C)C[N+](C)(C)CCOc1c(Cl)cc(N)cc1Cl.[Cl-] [Example 15]" readout_units=min result=4.5

* * *

# RUN_DESCRIPTION: blood and heart tissue levels in mice after intravenous and oral administration
# Type: in vivo
# ASSAY_CONTEXT: blood; mouse, oral 6 mg/kg, thirty minutes after administration; read-out: blood level
MEASURED_QUANTITY: concentration at 0.5 h (ng/mL)

compound_string=C=CC[N+](C)(C)CCOc1c(Br)cc(N)cc1Br.[Br-] measured_quantity="concentration at 0.5 h" readout_units=ng/mL result=1100

* * *

# RUN_DESCRIPTION: blood and heart tissue levels in mice after intravenous and oral administration
# Type: in vivo
# ASSAY_CONTEXT: blood; mouse, intravenous 6 mg/kg, 3 minutes after injection; read-out: blood level
MEASURED_QUANTITY: concentration at 0.05 h (ng/mL)

compound="C=CC[N+](C)(C)CCOc1c(Br)cc(N)cc1Br.[Br-] [Example 6]" measured_quantity="concentration at 0.05 h" result=2100

* * *

# RUN_DESCRIPTION: acute oral toxicity in rats
# ASSAY_CONTEXT: rat, in vivo, female rats, single oral dose
MEASURED_QUANTITY: LD50 at 24 h (mg/kg)

compound_string=C=C(C)C[N+](C)(C)CCOc1c(Br)cc(N)cc1Br.[Cl-] result=725

* * *

# RUN_DESCRIPTION: acute oral toxicity in mice
# ASSAY_CONTEXT: mouse, in vivo, female mice, single oral dose
# Protocol: An aqueous solution of [2-(4-amino-2,6-dibromophenoxy)ethyl]dimethyl (2-methylallyl)ammonium chloride is administered orally to several groups of male and female Sprague-Dawley derived rats and male and female Swiss mice (Cox strain). The compound is administered as single oral dosages in varying amounts, and the animals are held to assess toxicity twenty-four hours after administration of the compound.
MEASURED_QUANTITY: LD50 at 24 h (mg/kg)

compound_string=C=C(C)C[N+](C)(C)CCOc1c(Br)cc(N)cc1Br.[Cl-] result=550
